Data credit: patent US12398121B2

Biological target: Human recombinant PARP2 (Homo sapiens)
Sequence (Q9UGN5 whole entry): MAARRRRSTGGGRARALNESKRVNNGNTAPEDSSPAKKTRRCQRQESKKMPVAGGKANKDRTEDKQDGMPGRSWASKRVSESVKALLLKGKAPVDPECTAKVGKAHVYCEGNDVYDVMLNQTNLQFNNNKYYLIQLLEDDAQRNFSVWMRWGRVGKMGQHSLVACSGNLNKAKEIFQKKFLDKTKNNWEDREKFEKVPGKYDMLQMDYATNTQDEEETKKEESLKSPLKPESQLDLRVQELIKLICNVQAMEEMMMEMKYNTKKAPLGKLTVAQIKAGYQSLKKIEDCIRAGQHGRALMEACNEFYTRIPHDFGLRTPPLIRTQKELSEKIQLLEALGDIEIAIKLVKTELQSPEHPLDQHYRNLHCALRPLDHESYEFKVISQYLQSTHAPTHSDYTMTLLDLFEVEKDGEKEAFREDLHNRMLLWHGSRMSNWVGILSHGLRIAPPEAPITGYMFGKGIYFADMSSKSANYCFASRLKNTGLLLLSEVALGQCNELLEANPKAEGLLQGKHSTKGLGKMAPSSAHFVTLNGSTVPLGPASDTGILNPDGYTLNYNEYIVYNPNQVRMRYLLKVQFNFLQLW
Assay: RBC HotSpot PARP2 radioisotope-based filter binding assay
Type: biochemical
quantity kind: pIC50
Answers are plain numbers, as −log10 of the molar value.

# map each molecule to its pIC50
1. C[C@](O)(CS(=O)(=O)c1ccc(NCCCCCC(=O)N2CCN(C(=O)c3cc(Cc4n[nH]c(=O)c5ccccc45)ccc3F)CC2)cc1)C(=O)Nc1ccc(C#N)c(C(F)(F)F)c1
2. C[C@](O)(CS(=O)(=O)c1ccc(NCC(=O)N2CCN(C(=O)c3cc(Cc4n[nH]c(=O)c5ccccc45)ccc3F)CC2)cc1)C(=O)Nc1ccc(C#N)c(C(F)(F)F)c1
3. CC(O)(CS(=O)(=O)c1ccc(NCCn2cc(CN3CCN(C(=O)c4cc(Cc5n[nH]c(=O)c6ccccc56)ccc4F)CC3)nn2)cc1)C(=O)Nc1ccc(C#N)c(C(F)(F)F)c1 (stereo in doubt)

1. 9.70
2. 10.00
3. 9.40
